Here is a set of molecules with reported IC50 for cGMP-specific 3',5'-cyclic phosphodiesterase (Homo sapiens), compiled from the literature.
IC50 vs 5000 nM: less than gives Condition met; not less than gives Condition not met.

# count of solved cases: 6
{"molecule": "CCCOc1ccc(S(=O)(=O)N2CC[C@H](N(C)C)C2)cc1-c1nc(O)c2cc3c(cc2n1)ncn3Cc1ccccc1", "class label": "Condition met"}
{"molecule": "CCCCC(C(=O)O)c1csc(NC(=O)c2cccc(COc3ccccc3)n2)n1 (stereo not given)", "class label": "Condition not met"}
{"molecule": "COc1ccc(CNc2nc(OCc3ccccn3)ncc2C(=O)OCc2ncccn2)cc1Cl", "class label": "Condition met"}
{"molecule": "CCOC(=O)c1sc(Nc2nc(N3CCC(O)CC3)cc(N3CCC(N(C)C)CC3)n2)nc1C", "class label": "Condition not met"}
{"molecule": "CCc1cc(C#N)cc2c(NCc3ccc(OC)c(Cl)c3)c(CO)cnc12", "class label": "Condition met"}
{"molecule": "CN1C(=O)c2c(nc(Cc3ccccc3)n2Cc2cccc(O)c2O)N2C1=N[C@@H]1CCC[C@@H]12", "class label": "Condition met"}

Problem: Confirm or reject: IC50 of "CCCOc1ccc(N(C)C)cc1-c1nc2c(c(C)nn2C)c(=O)[nH]1" lies strictly below 5000 nM
Result: Condition met

Problem: For "CCCn1c2c(c3ccc(OC)cc31)CCn1c-2nc2ccccc2c1=O" , is the recorded IC50 below the cut-off of 5000 nM?
Result: Condition not met

Problem: Determine whether this molecule shows IC50 lower than 5000 nM (ties excluded): "O=C(O)Cc1cccc(NC(=O)c2cccc(COc3ccccc3)n2)c1"
Result: Condition not met

Problem: API: query returns whether the molecule falls strictly under 5000 nM in IC50. Query: "CC(C)c1n[nH]c2c(=O)[nH]c(Cc3ccccc3OCCN3CCOCC3)nc12"
Result: Condition not met
